System under test: T1, EsCas13d, nuclease-dead (Eubacterium siraeum, UniProt B0MS50, R295A;H300A;R849A;H854A)
T1 sequence: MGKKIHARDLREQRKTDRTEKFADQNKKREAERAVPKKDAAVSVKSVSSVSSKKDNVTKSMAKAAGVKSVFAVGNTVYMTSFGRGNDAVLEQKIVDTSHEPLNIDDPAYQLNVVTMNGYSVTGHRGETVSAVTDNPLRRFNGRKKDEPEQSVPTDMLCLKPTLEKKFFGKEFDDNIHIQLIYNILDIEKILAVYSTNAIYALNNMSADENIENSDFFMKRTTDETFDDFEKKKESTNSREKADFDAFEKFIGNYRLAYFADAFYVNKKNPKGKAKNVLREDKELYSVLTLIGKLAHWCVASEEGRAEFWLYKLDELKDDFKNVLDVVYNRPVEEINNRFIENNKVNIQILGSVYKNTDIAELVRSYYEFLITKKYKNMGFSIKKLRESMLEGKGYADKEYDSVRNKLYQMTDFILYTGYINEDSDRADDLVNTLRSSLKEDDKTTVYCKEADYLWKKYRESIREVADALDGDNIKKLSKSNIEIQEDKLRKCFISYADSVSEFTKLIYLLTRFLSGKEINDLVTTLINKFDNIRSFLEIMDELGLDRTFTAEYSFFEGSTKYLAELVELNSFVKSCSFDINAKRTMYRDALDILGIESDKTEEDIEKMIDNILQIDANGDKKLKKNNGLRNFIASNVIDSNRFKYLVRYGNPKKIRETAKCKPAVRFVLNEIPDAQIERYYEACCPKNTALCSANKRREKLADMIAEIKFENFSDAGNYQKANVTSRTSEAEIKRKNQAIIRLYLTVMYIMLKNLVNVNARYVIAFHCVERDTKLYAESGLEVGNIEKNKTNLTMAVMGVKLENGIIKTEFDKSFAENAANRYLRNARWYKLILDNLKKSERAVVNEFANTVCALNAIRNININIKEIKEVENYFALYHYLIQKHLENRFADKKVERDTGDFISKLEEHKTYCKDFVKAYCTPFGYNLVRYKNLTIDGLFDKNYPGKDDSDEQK
Assay remarks: crRNA (strand 1, pre-loaded); Mg2+; 40 mM Tris-HCl pH 7.5, 150 mM NaCl, 6 mM MgCl2, 1 mM DTT, 0.1% Tween-20, 0.2 mg/ml BSA; 25 C; 10 min per concentration, then washed
Particulars: tags: His6-TwinStrep-SUMO cleaved; N-terminal SNAP kept (SNAP-Surface 488); label: 3' end held by stalled T7 RNA polymerase
As shown below, each of these binders has a reported Kd value.
// units = nM; emit number, no label

Past entries and their recorded results:
{"Binder": "target 1 insU 3' of 17,insU 3' of 2 (mixed) RNA 1: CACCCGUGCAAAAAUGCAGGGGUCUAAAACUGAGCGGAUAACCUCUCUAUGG RNA 2: GGGAAUGGAUCCACAUCUACGAAUUCGUACCAUAGUAGAGGUUAUCCGCUCUACCGAGAUCGGAAGAGCACACGU", "Unit": "nM", "Kd": 15.1}
{"Binder": "target 1 MT 5'PFS GGC 3'PFS UGA (mixed) RNA 1: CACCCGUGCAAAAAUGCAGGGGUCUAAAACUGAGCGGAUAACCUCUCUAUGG RNA 2: GGGAAUGGAUCCACAUCUACGAAUUCGGCCCAUAGAGAGGUUAUCCGCUCAUGAAGAUCGGAAGAGCACACGU", "Unit": "nM", "Kd": 11.7}
{"Binder": "target 2 MT 5'PFS GGG 3'PFS AGC (mixed) RNA 1: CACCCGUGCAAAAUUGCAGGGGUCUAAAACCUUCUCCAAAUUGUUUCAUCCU RNA 2: GGGAAUGGAUCCACAUCUACGAAUUCGGGAGGAUGAAACAAUUUGGAGAAGAGCAGAUCGGAAGAGCACACGU", "Unit": "nM", "Kd": 6.5}

Consider the additional binder presented here.
Entry under review: target 1 A1G,U10A (mixed) RNA 1: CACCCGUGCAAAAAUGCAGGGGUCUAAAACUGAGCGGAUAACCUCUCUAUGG RNA 2: GGGAAUGGAUCCACAUCUACGAAUUCGUACCAUAGAGAGGUAAUCCGCUCGCCGAGAUCGGAAGAGCACACGU . Reported Kd?
8.5
